B1: FERM and PDZ domain-containing protein 4, residues 75 to 154; numbered along this chain, Q14CM0 (parent)
chain: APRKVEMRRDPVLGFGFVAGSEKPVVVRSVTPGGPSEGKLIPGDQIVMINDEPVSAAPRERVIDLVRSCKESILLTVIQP

- Variants of: B1
- protocol-description: abundance fitness (aPCA) (normalised: wild type 0, dead -1); higher = more abundant; growth selection in yeast, the domain comes from the species named
- measurement-setup: Homo sapiens
Use T when the recorded abundance fitness is no lower than -0.1; use F when it is lower.

[
  {
    "alteration": "I63Y",
    "class-name": "T"
  },
  {
    "alteration": "G34K",
    "class-name": "F"
  },
  {
    "alteration": "S72D",
    "class-name": "T"
  },
  {
    "alteration": "E60P",
    "class-name": "T"
  },
  {
    "alteration": "S68D",
    "class-name": "T"
  },
  {
    "alteration": "G43D",
    "class-name": "F"
  },
  {
    "alteration": "A57F",
    "class-name": "T"
  },
  {
    "alteration": "V77G",
    "class-name": "F"
  },
  {
    "alteration": "A1S",
    "class-name": "F"
  },
  {
    "alteration": "T31D",
    "class-name": "T"
  },
  {
    "alteration": "G43M",
    "class-name": "F"
  },
  {
    "alteration": "P53E",
    "class-name": "T"
  },
  {
    "alteration": "E6M",
    "class-name": "T"
  },
  {
    "alteration": "I41W",
    "class-name": "T"
  },
  {
    "alteration": "L74G",
    "class-name": "T"
  },
  {
    "alteration": "D64A",
    "class-name": "T"
  },
  {
    "alteration": "L40I",
    "class-name": "F"
  },
  {
    "alteration": "R8N",
    "class-name": "T"
  },
  {
    "alteration": "S68Q",
    "class-name": "T"
  },
  {
    "alteration": "G14C",
    "class-name": "F"
  },
  {
    "alteration": "D44H",
    "class-name": "F"
  },
  {
    "alteration": "G14W",
    "class-name": "F"
  },
  {
    "alteration": "D10N",
    "class-name": "T"
  },
  {
    "alteration": "V26A",
    "class-name": "F"
  },
  {
    "alteration": "K70W",
    "class-name": "F"
  },
  {
    "alteration": "V12K",
    "class-name": "T"
  },
  {
    "alteration": "L74M",
    "class-name": "T"
  },
  {
    "alteration": "F15H",
    "class-name": "F"
  },
  {
    "alteration": "L65T",
    "class-name": "F"
  },
  {
    "alteration": "Q79H",
    "class-name": "T"
  },
  {
    "alteration": "V26T",
    "class-name": "T"
  },
  {
    "alteration": "E22T",
    "class-name": "F"
  },
  {
    "alteration": "F17G",
    "class-name": "F"
  },
  {
    "alteration": "G20T",
    "class-name": "T"
  },
  {
    "alteration": "V18G",
    "class-name": "F"
  },
  {
    "alteration": "V18F",
    "class-name": "F"
  },
  {
    "alteration": "P35I",
    "class-name": "F"
  },
  {
    "alteration": "P80C",
    "class-name": "F"
  },
  {
    "alteration": "R61H",
    "class-name": "T"
  },
  {
    "alteration": "V62A",
    "class-name": "F"
  },
  {
    "alteration": "R3G",
    "class-name": "F"
  },
  {
    "alteration": "K70E",
    "class-name": "T"
  },
  {
    "alteration": "P35A",
    "class-name": "F"
  },
  {
    "alteration": "L75T",
    "class-name": "F"
  },
  {
    "alteration": "K23D",
    "class-name": "T"
  },
  {
    "alteration": "C69H",
    "class-name": "T"
  },
  {
    "alteration": "L74V",
    "class-name": "T"
  },
  {
    "alteration": "I49S",
    "class-name": "F"
  },
  {
    "alteration": "G14F",
    "class-name": "F"
  },
  {
    "alteration": "N50W",
    "class-name": "F"
  },
  {
    "alteration": "S68A",
    "class-name": "T"
  },
  {
    "alteration": "C69T",
    "class-name": "T"
  },
  {
    "alteration": "L74H",
    "class-name": "T"
  },
  {
    "alteration": "F15S",
    "class-name": "F"
  },
  {
    "alteration": "Q79V",
    "class-name": "F"
  },
  {
    "alteration": "K39H",
    "class-name": "T"
  },
  {
    "alteration": "S72V",
    "class-name": "F"
  },
  {
    "alteration": "I63M",
    "class-name": "T"
  },
  {
    "alteration": "K70P",
    "class-name": "T"
  },
  {
    "alteration": "E52P",
    "class-name": "F"
  },
  {
    "alteration": "S68E",
    "class-name": "T"
  },
  {
    "alteration": "P58Y",
    "class-name": "F"
  },
  {
    "alteration": "G43S",
    "class-name": "F"
  },
  {
    "alteration": "G43I",
    "class-name": "F"
  },
  {
    "alteration": "D44C",
    "class-name": "F"
  },
  {
    "alteration": "P2C",
    "class-name": "T"
  },
  {
    "alteration": "R9G",
    "class-name": "F"
  },
  {
    "alteration": "L40D",
    "class-name": "F"
  },
  {
    "alteration": "S29V",
    "class-name": "F"
  },
  {
    "alteration": "V66D",
    "class-name": "F"
  },
  {
    "alteration": "M7E",
    "class-name": "F"
  },
  {
    "alteration": "M48H",
    "class-name": "F"
  },
  {
    "alteration": "R59P",
    "class-name": "T"
  },
  {
    "alteration": "S21G",
    "class-name": "T"
  },
  {
    "alteration": "P11A",
    "class-name": "F"
  },
  {
    "alteration": "V12G",
    "class-name": "T"
  },
  {
    "alteration": "R61N",
    "class-name": "T"
  },
  {
    "alteration": "L74P",
    "class-name": "F"
  },
  {
    "alteration": "K23C",
    "class-name": "T"
  },
  {
    "alteration": "P35M",
    "class-name": "F"
  },
  {
    "alteration": "V62Y",
    "class-name": "F"
  }
]
